Reference source: patent US10011607B2

tested system: human mGlu4 receptor (Homo sapiens (Human), UniProt Q14833)
Sequence (Q14833 33-912): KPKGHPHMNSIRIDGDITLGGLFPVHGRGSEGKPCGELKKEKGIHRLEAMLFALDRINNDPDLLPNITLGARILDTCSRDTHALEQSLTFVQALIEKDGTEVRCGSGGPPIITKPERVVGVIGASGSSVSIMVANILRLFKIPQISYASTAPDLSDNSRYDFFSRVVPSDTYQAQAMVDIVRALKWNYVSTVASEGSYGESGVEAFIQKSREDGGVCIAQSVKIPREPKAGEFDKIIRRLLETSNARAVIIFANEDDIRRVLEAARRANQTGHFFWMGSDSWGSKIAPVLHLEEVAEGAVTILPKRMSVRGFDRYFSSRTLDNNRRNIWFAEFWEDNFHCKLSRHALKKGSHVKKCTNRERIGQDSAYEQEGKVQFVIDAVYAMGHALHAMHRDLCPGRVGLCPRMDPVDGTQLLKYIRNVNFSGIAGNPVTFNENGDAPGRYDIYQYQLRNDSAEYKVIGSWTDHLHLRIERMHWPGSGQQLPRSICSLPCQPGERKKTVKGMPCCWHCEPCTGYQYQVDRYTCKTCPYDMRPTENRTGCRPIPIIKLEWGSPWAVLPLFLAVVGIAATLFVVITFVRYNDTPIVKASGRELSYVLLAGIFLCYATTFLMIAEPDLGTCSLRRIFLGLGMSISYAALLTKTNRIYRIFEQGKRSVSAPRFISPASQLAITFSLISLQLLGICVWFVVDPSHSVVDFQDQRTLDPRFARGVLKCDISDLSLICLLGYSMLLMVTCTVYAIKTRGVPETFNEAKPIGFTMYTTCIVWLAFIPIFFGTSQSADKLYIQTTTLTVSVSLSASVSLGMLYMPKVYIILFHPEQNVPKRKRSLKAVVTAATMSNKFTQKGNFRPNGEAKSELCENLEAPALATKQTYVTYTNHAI
experimental details: Ca2+ mobilization in vitro assay on recombinant human mGlu4 expressed in HEK293 cells (PAM)
Assay type: cell-based
condition summary: HEK293; maximal response in % of maximal stimulatory effect of saturating L-AP4; read-out: Eff. (%)
// reported Emax per item
measure: Emax (%)

INSERT INTO results (molecule, measure, reported_value) VALUES
  ('Cn1nccc1N1CCN2C(=O)N(c3c(F)cc(C#Cc4ccccc4)cc3F)C(=O)CC2(C)C1=O (racemic)', 'Emax', 155),
  ('CC12CC(=O)N(c3c(F)cc(C#Cc4ccccc4)cc3F)C(=O)N1CCN(c1cnccn1)C2=O (racemic)', 'Emax', 112),
  ('C[C@@]12CC(=O)N(c3c(F)cc(C#Cc4ccccc4)cc3F)C(=O)N1CCN(Cc1ccccc1F)C2=O', 'Emax', 98),
  ('Cc1cccc(C)c1CN1CCN2C(=O)N(c3c(F)cc(C#Cc4ccccc4)cc3F)C(=O)CC2(C)C1=O (racemic)', 'Emax', 118),
  ('Cn1ccc(N2CCN3C(=O)N(c4c(F)cc(C#Cc5ccccc5)cc4F)C(=O)C[C@@]3(C)C2=O)n1', 'Emax', 136),
  ('CC12CC(=O)N(c3c(F)cc(C#Cc4ccccc4)cc3F)C(=O)N1CCN(Cc1cccc(Cl)c1)C2=O (racemic)', 'Emax', 134),
  ('Cc1csc(N2CCN3C(=O)N(c4c(F)cc(C#Cc5ccccc5)cc4F)C(=O)CC3(C)C2=O)n1 (racemic)', 'Emax', 97);

----------
tested system: human mGlu4 receptor (Homo sapiens (Human), UniProt Q14833)
experimental details: Ca2+ mobilization in vitro assay on recombinant human mGlu4 expressed in HEK293 cells (PAM)
Type: cell-based
condition summary: HEK293; maximal response in % of maximal stimulatory effect of saturating L-AP4; read-out: Eff. (%)
measure: Emax (%)

INSERT INTO measurements (molecule, reported_value) VALUES
  ('COCCCn1cc(N2CCN3C(=O)N(c4c(F)cc(C#Cc5ccccc5)cc4F)C(=O)C[C@@]3(C)C2=O)cn1', 149),
  ('Cc1cc(N2CCN3C(=O)N(c4c(F)cc(C#Cc5ccccc5)cc4F)C(=O)CC3(C)C2=O)ccn1 (racemic)', 119),
  ('Cn1cnc(N2CCN3C(=O)N(c4c(F)cc(C#Cc5ccccc5)cc4F)C(=O)C[C@@]3(C)C2=O)n1', 138),
  ('CC12CC(=O)N(c3c(F)cc(C#Cc4ccccc4)cc3F)C(=O)N1CCN(c1cccnn1)C2=O (racemic)', 106),
  ('CC12CC(=O)N(c3c(F)cc(C#Cc4ccccc4)cc3F)C(=O)N1CCN(Cc1ccncc1)C2=O (racemic)', 84),
  ('Cn1nccc1N1CCN2C(=O)N(c3c(F)cc(C#Cc4ccccc4)cc3F)C(=O)C[C@@]2(C)C1=O', 92),
  ('Cc1cncc(N2CCN3C(=O)N(c4c(F)cc(C#Cc5ccccc5)cc4F)C(=O)CC3(C)C2=O)n1 (racemic)', 114),
  ('COCC12CC(=O)N(c3c(F)cc(C#Cc4ccccc4)cc3F)C(=O)N1CCN(c1cccnc1)C2=O (racemic)', 136),
  ('Cn1cc(N2CCN3C(=O)N(c4c(F)cc(C#Cc5ccccc5)cc4Cl)C(=O)C[C@@]3(C)C2=O)cn1', 117),
  ('Cc1cncc(N2CCN3C(=O)N(c4c(F)cc(C#Cc5ccccc5)cc4F)C(=O)CC3(C)C2=O)c1 (racemic)', 129),
  ('CC12CC(=O)N(c3c(F)cc(C#Cc4ccccc4)cc3F)C(=O)N1CCN(c1nc(C(F)(F)F)cs1)C2=O (racemic)', 88),
  ('C[C@@]12CC(=O)N(c3c(F)cc(C#Cc4ccccc4)cc3F)C(=O)N1CCN(CC(F)(F)F)C2=O', 172),
  ('Cn1cc(CCN2CCN3C(=O)N(c4c(F)cc(C#Cc5ccccc5)cc4F)C(=O)C[C@@]3(C)C2=O)cn1', 129),
  ('Cn1nccc1CCN1CCN2C(=O)N(c3c(F)cc(C#Cc4ccccc4)cc3F)C(=O)C[C@@]2(C)C1=O', 123);
